Sourced from PubChem BioAssay (NCI)

# MEASUREMENT_DESCRIPTION: NCI Yeast Anticancer Drug Screen. Data for the rad50EPP+ strain (AID 151);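 also: 0% = growth of vehicle-treated control cultures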
# COND: S. cerevisiae rad50 mutant strain, at 11.0 µM
The panel holds about 79,000 compounds, 15% with a hit somewhere; the sample as a whole holds those more often. Calls of active or inactive are those of the source. Rule as the data show it: active = growth inhibition above about 70%; inactive = the rest.
Could you please pick one outcome from this set? active, inactive

# COMPOUND, QUALITATIVE_LABEL
rows = [
    ("CCC(C)(c1ccc(O)c(C)c1)c1ccc(O)c(C)c1", "inactive"),
    ("O=S1(=O)c2ccccc2N=C(c2ccccc2Cl)CC1c1ccc(F)cc1 (stereo not given)", "inactive"),
    ("Cc1c(-c2ccccc2)[nH]c2ccccc12", "inactive"),
    ("CN(C)c1ccc(/C=C/c2ccnc3ccccc23)cc1N", "inactive"),
]

QUERY: Recorded test call requested for CCCCCC(=O)c1ccc(O)cc1O
RESULT: inactive

QUERY: Kindly provide the recorded test outcome for the following compound: CN=C(N)N/N=C(\C)c1ccc2oc3ccc(/C(C)=N/NC(N)=NC)cc3c2c1
RESULT: active

QUERY: Recorded test call requested for N#C/C(=C1C=C/C(=N/O)c2ccccc2/1)c1ccccc1
RESULT: inactive

QUERY: For O=C(O)c1[nH]c(=O)c2ccccc2c1Nc1ccccc1 , what call appears in the results of this test?
RESULT: inactive

QUERY: In this assay, the call recorded for CC(C)(O)c1ccccc1C(c1ccccc1)c1ccccc1 was what?
RESULT: inactive

----------
The reader will find reported growth inhibition values listed item by item below.
# MEASUREMENT_DESCRIPTION: NCI Yeast Anticancer Drug Screen. Data for the mec2-1 strain (AID 157)
# COND: S. cerevisiae mec2-1 strain, at 1.2 µM, active compounds read high
This is part of a sample that, as a whole, favours compounds with a hit. Of some 79,000 tested, about 15% had one in any assay.
Report only the number, with the unit % understood.

QUERY: # return recorded growth inhibition for entry O=Nn1c2ccccc2c2ccccc21
RESULT: -17

QUERY: Identify growth inhibition associated with the compound O=[N+]([O-])/C(C(Cl)=C(Cl)Cl)=C1/OCCS1
RESULT: 24

QUERY: State its growth inhibition: CSc1s[s+]c(SC)c1-c1ccccc1
RESULT: 7

QUERY: Supply growth inhibition value. Item: CCOC(=O)c1csc(Br)n1
RESULT: -7

QUERY: Answer with reported growth inhibition of COc1ccc(N2CN(C)CSC2=S)cc1
RESULT: -17

QUERY: Fill in reported growth inhibition for this entry: OCCN(CCO)c1ccc2c(c1)Cc1ccccc1-2
RESULT: -3

QUERY: Give recorded growth inhibition. O=c1[nH]c2ccccc2c2nc3ccccc3n12
RESULT: -48

QUERY: Given the compound NCc1c(O)ccc2ccccc12 , write its reported growth inhibition.
RESULT: -3

QUERY: Answer with the recorded growth inhibition of N#CSC1CCCCNC1=O (configuration not stated) only.
RESULT: 4

QUERY: Supply measured growth inhibition of O=c1ccc(N=Nc2ccccc2)ccc1O in your reply.
RESULT: -1

QUERY: Give growth inhibition for the following compound: Clc1c(Cl)c(Cl)c2c(nnn2C2CCCO2)c1Cl (configuration not stated)
RESULT: 2

----------
# MEASUREMENT_DESCRIPTION: NCI Yeast Anticancer Drug Screen. Data for the wt2 strain (AID 169);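 also: 0% = growth of vehicle-treated yeast cultures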
# COND: S. cerevisiae wt2 strain growth inhibition; at 1.2 µM; active compounds read high
About 79,000 compounds went through this panel and 15% of them were active in at least one assay; those are over-represented in the sample as a whole.
PROPERTY_MEASURED: growth inhibition (%)
A number alone suffices; assume %.

# COMPOUND, growth inhibition / %
data = [
    ("O=C(CNS(=O)(=O)Cc1ccccc1)NNc1ccccc1", 1),
    ("Nc1cc(S(N)(=O)=O)ccc1SSc1ccc(S(N)(=O)=O)cc1N", -1),
]

QUERY: Tell me growth inhibition reported for c1ccc2c(c1)ccc1c3ccncc3ccc21
RESULT: -3

QUERY: Report growth inhibition, nothing else, for this compound: Cc1ccc(S(=O)(=O)Nc2ccc3c(c2)C(O)c2ccccc2-3)cc1 (configuration not stated)
RESULT: -6

QUERY: Input CNc1nc(C)nc2c1cnn2-c1ccc([N+](=O)[O-])cc1 , output reported growth inhibition.
RESULT: -4

QUERY: Report measured growth inhibition; entry is Oc1ccc(C=Nc2ccccc2O)cc1
RESULT: 25

----------
# MEASUREMENT_DESCRIPTION: NCI Yeast Anticancer Drug Screen. Data for the rad14 strain (AID 159);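 also: 0% = growth of vehicle-treated control cultures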
# COND: S. cerevisiae rad14 strain growth inhibition; at 33.0 µM; active compounds read high
This is part of a sample that, as a whole, favours compounds with a hit. Of some 79,000 tested, about 15% had one in any assay.
PROPERTY_MEASURED: growth inhibition (%)
State the answer as a number, implicitly in %.

These recorded examples may help you get a feel for the data.
# COMPOUND, READOUT_UNITS, NUMERIC_READOUT
measured = [
    ("Clc1c(Cl)c(Cl)c2c(nnn2C2CCCO2)c1Cl (configuration not stated)", "%", 12),
    ("Cc1ccc2c(ccc(/C=C/c3ccc(O)c4ncccc34)[n+]2C)c1", "%", 94),
    ("O=c1[nH]cc(/C=N\\Nc2ccccc2)c(=O)[nH]1", "%", 15),
    ("CN[C@@H]1C[C@H]2O[C@@](C)([C@@H]1OC)n1c3ccccc3c3c4c(c5c6ccccc6n2c5c31)C(=O)N[C@@H]4O", "%", -9),
    ("Nc1ccc(S(=O)(=O)Nc2ccc(Nc3c4ccccc4nc4ccccc34)cc2)cc1", "%", 25),
]

Now let's try a different one.
QUERY: For O=NN(CCCl)C(=O)NCCCl , write its growth inhibition.
RESULT: 3

----------
# MEASUREMENT_DESCRIPTION: NCI Yeast Anticancer Drug Screen. Data for the rad14 strain (AID 159);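 also: 0% = growth of vehicle-treated control cultures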
# COND: S. cerevisiae rad14 strain growth inhibition; at 3.7 µM; active compounds read high
About 79,000 compounds went through this panel and 15% of them were active in at least one assay; those are over-represented in the sample as a whole.
Listed here: items and their measured growth inhibition.
# number only, unit % dropped from output

# MOLECULE, growth inhibition [%]
records = [
    ("O=C1c2cccc3cc([N+](=O)[O-])cc(c23)C(=O)N1CCN1CCCC1", 11),
    ("Nc1ccc2c(=S)c3ccccc3[nH]c2c1", 7),
]

QUERY: For the molecule CN[C@@H]1C[C@H]2O[C@@](C)([C@@H]1OC)n1c3ccccc3c3c4c(c5c6ccccc6n2c5c31)C(=O)N[C@@H]4O , give its measured growth inhibition value.
RESULT: -34

QUERY: Give recorded growth inhibition. Nc1nc(F)nc2c1ncn2C1OC(COP(=O)(O)O)C(O)C1O (centres undefined)
RESULT: -2

----------
# MEASUREMENT_DESCRIPTION: NCI Yeast Anticancer Drug Screen. Data for the rad50 strain (AID 155);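 also: 0% = growth of vehicle-only cultures of the same strain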
# COND: S. cerevisiae rad50 strain growth inhibition; at 3.7 µM
About 79,000 compounds went through this panel and 15% of them were active in at least one assay; those are over-represented in the sample as a whole. Active and inactive are the calls of the source. Rule as the data show it: active = growth inhibition above about 70%; inactive = the rest.
Returns: one label drawn from t = active, f = inactive

The examples below pair each entry with its known result.
# MOLECULE, QUALITATIVE_LABEL
records = [
    ("N#Cc1sc2c(c1OC(=O)c1ccco1)c(=O)n(-c1ccccc1)c(=S)n2-c1ccccc1", "f"),
    ("Nc1ccc2c(c1)sc1ccccc12", "f"),
    ("Nc1cc(F)cc2c1-c1ccc(F)cc1C2", "f"),
    ("CCN(CC)CC(O)C1CCC(c2ccccc2)CC1 (centres undefined)", "f"),
    ("Cc1ccc2c(ccc(/C=C/c3ccc(O)c4ncccc34)[n+]2C)c1", "f"),
    ("O/N=C/C1c2ccccc2-c2ccccc21", "f"),
    ("O=C(/C=C/c1cccc2ccccc12)c1ccc(Cl)cc1", "f"),
    ("N#C/C(=C1C=C/C(=N/O)c2ccccc2/1)c1ccccc1", "f"),
    ("Oc1ccccc1N=Cc1ccc(Cl)cc1", "f"),
    ("O=C(O)c1cccc2cccc(-c3c4ccc(=O)cc-4oc4cc(O)ccc34)c12", "f"),
]

QUERY: Entry CCOP1(=O)C=C(Sc2ccc([N+](=O)[O-])cc2[N+](=O)[O-])C(C)(C)O1 (centres undefined) : call = ?
RESULT: f

QUERY: Lab log entry: O=c1[nH]c2ccccc2c2nc3ccccc3n12 — outcome as called in the assay?
RESULT: f

QUERY: Test call for this molecule, please: O=C1c2cccc3cc([N+](=O)[O-])cc(c23)C(=O)N1CCN1CCCC1
RESULT: f

QUERY: Hey, what did the test say about O=[N+]([O-])/C(C(Cl)=C(Cl)Cl)=C1/OCCS1 ?
RESULT: f
